Value source: BigSolDB 2.1

details: in propylene glycol, 308.2 K
ASSAY_METRIC: solubility (mole fraction)

INSERT INTO results (test_smiles, assay_metric, endpoint_result) VALUES
  ('CC(=O)Oc1ccccc1C(=O)O', 'solubility (mole fraction)', 0.041);

---

settings: in acetone, 297.9 K
ASSAY_METRIC: solubility (mole fraction)

INSERT INTO measurements (test_smiles, endpoint_result) VALUES
  ('CC(=O)Oc1ccccc1C(=O)O', 0.088);

---

settings: in acetone, 323.3 K
ASSAY_METRIC: solubility (mole fraction)

INSERT INTO measurements (test_smiles, endpoint_result) VALUES
  ('CC(=O)Oc1ccccc1C(=O)O', 0.151);

---

settings: in isopropanol, 322.7 K
ASSAY_METRIC: solubility (mole fraction)

INSERT INTO results (test_smiles, assay_metric, endpoint_result) VALUES
  ('CC(=O)Oc1ccccc1C(=O)O', 'solubility (mole fraction)', 0.128);
